- test.target: UniProt:P35968
- Sequence (P35968 20-1356): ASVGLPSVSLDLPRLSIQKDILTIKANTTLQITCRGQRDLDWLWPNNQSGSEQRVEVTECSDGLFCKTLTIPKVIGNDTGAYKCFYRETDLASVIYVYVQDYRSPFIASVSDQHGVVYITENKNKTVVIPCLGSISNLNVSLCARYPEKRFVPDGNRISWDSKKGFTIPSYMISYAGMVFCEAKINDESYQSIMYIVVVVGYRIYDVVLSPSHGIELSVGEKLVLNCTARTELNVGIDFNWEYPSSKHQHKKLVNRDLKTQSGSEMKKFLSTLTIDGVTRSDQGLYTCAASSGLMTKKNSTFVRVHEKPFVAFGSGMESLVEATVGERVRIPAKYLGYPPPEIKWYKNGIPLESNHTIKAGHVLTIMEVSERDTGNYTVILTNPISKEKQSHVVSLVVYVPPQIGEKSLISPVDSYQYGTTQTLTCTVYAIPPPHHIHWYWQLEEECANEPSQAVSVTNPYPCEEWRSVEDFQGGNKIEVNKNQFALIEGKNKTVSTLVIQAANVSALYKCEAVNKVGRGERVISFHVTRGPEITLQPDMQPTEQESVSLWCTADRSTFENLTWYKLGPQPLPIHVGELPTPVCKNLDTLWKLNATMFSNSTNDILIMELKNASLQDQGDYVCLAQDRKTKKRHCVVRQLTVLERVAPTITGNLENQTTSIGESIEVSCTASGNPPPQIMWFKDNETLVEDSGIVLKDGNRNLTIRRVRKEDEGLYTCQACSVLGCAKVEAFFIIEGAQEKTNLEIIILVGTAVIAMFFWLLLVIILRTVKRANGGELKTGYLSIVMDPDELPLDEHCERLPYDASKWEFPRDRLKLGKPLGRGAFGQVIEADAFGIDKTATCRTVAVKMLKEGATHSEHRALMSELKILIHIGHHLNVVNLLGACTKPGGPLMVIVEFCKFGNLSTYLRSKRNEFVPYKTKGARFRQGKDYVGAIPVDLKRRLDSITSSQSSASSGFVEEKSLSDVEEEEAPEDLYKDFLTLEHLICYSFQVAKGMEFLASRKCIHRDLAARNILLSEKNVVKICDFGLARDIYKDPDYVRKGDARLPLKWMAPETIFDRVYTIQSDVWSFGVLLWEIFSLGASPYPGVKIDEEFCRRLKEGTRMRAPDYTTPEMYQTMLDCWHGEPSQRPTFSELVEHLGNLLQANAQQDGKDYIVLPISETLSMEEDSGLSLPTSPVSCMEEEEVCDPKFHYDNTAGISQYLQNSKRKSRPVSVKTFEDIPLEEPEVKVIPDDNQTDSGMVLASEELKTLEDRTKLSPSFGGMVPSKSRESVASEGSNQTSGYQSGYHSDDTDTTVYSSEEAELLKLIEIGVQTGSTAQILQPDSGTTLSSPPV
quantity.name: IC50 (nM)

1) CN1CCCCC1C(=O)Nc1ccc2c(c1)N/C(=C(/C(N)=O)c1nccc(C(F)(F)F)n1)N2 (centres unmarked) [Compound 82A]    10
2) CCN(CCCn1ccnc1)C(=O)c1ccc2c(c1)N/C(=C(/C(N)=O)c1nccc(C(F)(F)F)n1)N2 [Compound 48A]    10
3) CN1CCCC[C@H]1C(=O)Nc1ccc2c(c1)N/C(=C(/C(N)=O)c1nccc(C(F)(F)F)n1)N2 [Compound 142A]    10
4) NC(=O)/C(=C1\Nc2ccc(NC(=O)C3(N)CC3)cc2N1)c1nccc(C(F)(F)F)n1 [Compound 34A]    10
5) NC(=O)/C(=C1\Nc2ccc(NC(=O)C3CC3)cc2N1)c1nccc(C(F)(F)F)n1 [Compound 33A]    9
6) CN1CCN(C(=O)c2ccc3c(c2)S/C(=C(/C(N)=O)c2nccc(C(F)(F)F)n2)N3)CC1 [Compound 59A]    6
7) NCCCNC(=O)c1ccc2c(c1)S/C(=C(/C(N)=O)c1nccc(C(F)(F)F)n1)N2 [Compound 65A]    7
8) CN1CCN(Cc2ccc3c(c2)S/C(=C(/C(N)=O)c2nccc(C(F)(F)F)n2)N3)CC1 [Compound 93A]    10
